Origin of the recorded values: paper PMC8151276

The entries below come with measured NanoBRET Fold Response values attached.
- System Name: CCKBR (Homo sapiens)
- Construct: purchased Promega (in-house HiBiT-GPCR construct library, NanoBRET)
- Sequence (P32239 1-447): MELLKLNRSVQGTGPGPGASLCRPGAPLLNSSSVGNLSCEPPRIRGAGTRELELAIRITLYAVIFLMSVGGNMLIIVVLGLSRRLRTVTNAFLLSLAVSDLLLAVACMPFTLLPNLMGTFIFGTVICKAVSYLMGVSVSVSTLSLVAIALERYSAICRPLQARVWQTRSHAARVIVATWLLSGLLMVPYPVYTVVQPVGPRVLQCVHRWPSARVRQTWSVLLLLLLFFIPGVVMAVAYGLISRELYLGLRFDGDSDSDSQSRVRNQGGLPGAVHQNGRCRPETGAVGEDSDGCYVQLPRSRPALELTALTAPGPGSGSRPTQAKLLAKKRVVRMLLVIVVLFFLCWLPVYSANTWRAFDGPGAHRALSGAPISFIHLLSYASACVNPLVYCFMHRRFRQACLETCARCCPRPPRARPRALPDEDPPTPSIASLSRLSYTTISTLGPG
- Assay Procedure: NanoBRET screen HiBiT-CCKBR in HEK293
- Format: binding
- Run Conditions: CCKBR; tracer 0.1μM
Reply with just the number.

Compound String: Cc1cc2c(s1)Nc1ccccc1N=C2N1CCN(CCCNC(=O)CCOCCOCCOCCOCCNC(=O)CCc2ccc3n2[B-](F)(F)[N+]2=C(c4ccc[nH]4)C=CC2=C3)CC1
Quantity Measured: NanoBRET Fold Response
Meas Value: 1.07

Task: Recorded NanoBRET Fold Response for O=C(CCc1ccc2n1[B-](F)(F)[N+]1=C(c3ccc[nH]3)C=CC1=C2)NCCOCCOCCNC(=O)OCCOCCN1CCN(C2=Nc3ccccc3Sc3ccccc32)CC1 with CCKBR (Homo sapiens), please?
Result: 1.05

Task: Repeat with N#CN=C(NCCCOc1cccc(CN2CCCCC2)c1)NCCNC(=O)CCOCCOCCOCCOCCNC(=O)CCc1ccc2n1[B-](F)(F)[N+]1=C(c3ccc[nH]3)C=CC1=C2
Result: 1.17
